Target: Tyrosine-protein phosphatase non-receptor type 1 (Homo sapiens) (UniProt P18031)
Sequence (P18031 whole entry): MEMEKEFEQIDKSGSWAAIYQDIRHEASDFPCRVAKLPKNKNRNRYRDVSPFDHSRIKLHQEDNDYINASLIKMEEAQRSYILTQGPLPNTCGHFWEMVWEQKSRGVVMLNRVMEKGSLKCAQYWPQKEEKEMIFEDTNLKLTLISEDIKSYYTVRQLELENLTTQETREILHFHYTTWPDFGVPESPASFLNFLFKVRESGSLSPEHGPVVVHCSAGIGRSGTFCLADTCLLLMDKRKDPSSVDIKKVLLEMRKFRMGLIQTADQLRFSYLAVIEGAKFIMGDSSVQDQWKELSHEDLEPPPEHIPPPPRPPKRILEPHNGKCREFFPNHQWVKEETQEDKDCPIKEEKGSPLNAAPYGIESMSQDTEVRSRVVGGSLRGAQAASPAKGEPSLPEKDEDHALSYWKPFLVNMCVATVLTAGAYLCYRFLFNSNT
Experiment: Inhibition of PTP1B (unknown origin) assessed as decrease in p-nitrophenol production from pNPP substrate at 25 ug/ml after 30 mins by HTS7000 bioassay reader analysis
observation type: inhibition

# smiles record, target or system, observation type, observed value
measured = [
    ("CC(C)=C1C[C@H]2[C@@H](CC[C@@]2(C)O)[C@@](C)(O)CC1=O", "Tyrosine-protein phosphatase non-receptor type 1 (Homo sapiens) (UniProt P18031)", "inhibition", "86%"),
    ("C=C(C)[C@@H]1CC[C@@]2(C)[C@H](O)CC[C@@](C)(O)[C@@H]2C1", "Tyrosine-protein phosphatase non-receptor type 1 (Homo sapiens) (UniProt P18031)", "inhibition", "< 65%"),
    ("C=C1CC[C@H]2C(C)(C)CCC[C@]2(C)[C@H]1C/C=C(\\C=O)CC(=O)O", "Tyrosine-protein phosphatase non-receptor type 1 (Homo sapiens) (UniProt P18031)", "inhibition", "96.7%"),
    ("C=C(C)[C@@H]1CC[C@@]2(C)OC(=O)C(=C(C)C)C[C@@H]12", "Tyrosine-protein phosphatase non-receptor type 1 (Homo sapiens) (UniProt P18031)", "inhibition", "< 65%"),
    ("CCCCCCCCCCCCCCCC(=O)C1=C(O)[C@@H](CO)OC1=O", "Tyrosine-protein phosphatase non-receptor type 1 (Homo sapiens) (UniProt P18031)", "inhibition", "99.1%"),
    ("C/C1=C/C(=O)/C(C(C)(C)O)=C\\C=C(\\C)C(=O)CC1", "Tyrosine-protein phosphatase non-receptor type 1 (Homo sapiens) (UniProt P18031)", "inhibition", "< 65%"),
    ("C[C@H]1[C@H](C)CC[C@]2(C(=O)O)CC[C@]3(C)C(=CC[C@@H]4[C@@]5(C)CC[C@H](O)C(C)(C)[C@@H]5CC[C@]43C)[C@H]12", "Tyrosine-protein phosphatase non-receptor type 1 (Homo sapiens) (UniProt P18031)", "inhibition", "96.7%"),
    ("CC(C)=C1C[C@H]2[C@H](CC[C@]2(C)O)[C@@](C)(O)CC1=O", "Tyrosine-protein phosphatase non-receptor type 1 (Homo sapiens) (UniProt P18031)", "inhibition", "< 65%"),
    ("CC(C)=C1C[C@@H](O)[C@@](C)(O)CC[C@H](O)/C(C)=C\\C1=O", "Tyrosine-protein phosphatase non-receptor type 1 (Homo sapiens) (UniProt P18031)", "inhibition", "77.5%"),
    ("C=C(C)[C@@H]1CC[C@]2(C)OC(=O)C(=C(C)C)C[C@@H]12", "Tyrosine-protein phosphatase non-receptor type 1 (Homo sapiens) (UniProt P18031)", "inhibition", "< 65%"),
    ("C=C(C)[C@@H]1CC[C@](C)(O)[C@H]2CC[C@](C)(O)[C@H]2C1", "Tyrosine-protein phosphatase non-receptor type 1 (Homo sapiens) (UniProt P18031)", "inhibition", "< 65%"),
    ("C=C(C)[C@H]1CC[C@H](C)[C@]12CC(=C(C)C)C(=O)O2", "Tyrosine-protein phosphatase non-receptor type 1 (Homo sapiens) (UniProt P18031)", "inhibition", "< 65%"),
    ("C=C(C)[C@@H]1CC[C@H](C)[C@@]12C=C(C(C)(C)O)C(=O)O2", "Tyrosine-protein phosphatase non-receptor type 1 (Homo sapiens) (UniProt P18031)", "inhibition", "< 65%"),
    ("CC(C)=C1C[C@H]2[C@@H](CC[C@]2(C)O)[C@](C)(O)CC1=O", "Tyrosine-protein phosphatase non-receptor type 1 (Homo sapiens) (UniProt P18031)", "inhibition", "< 65%"),
]
